Tested on: MDA-MB-435 melanoma
Measurement protocol: NCI-60 one-dose screen, 48 h (100 = growth as untreated, 0 = no growth, -100 = all killed)
Condition set: 10 µM unless noted
Compounds without any hit were thinned out: in the full panel of roughly 83,000, 20% have a hit.
Quantity: growth (%)
Numbers only; they are read as %.

Sample records with growth:
Query: Which value of growth has been reported for O=C1CCc2c(sc3[nH]c(=S)n(Cc4ccc(Cl)cc4)c(=O)c23)C1 in the records?
Result: 11.3

Query: So what does the record say about growth for CC(=O)c1c(C)nc(SCC(=O)Nc2ccc(Cl)cc2)n1-c1ccc(Cl)cc1 ?
Result: 89.6

Query: May I ask what growth has been recorded for Cc1c(CC(=O)OCCO)cc(-c2ccc(Cl)cc2)n1-c1ccccc1 ?
Result: 98.7

Query: Look at this molecule and give its reported growth. O=C(Nc1ccc2ncsc2c1)c1csc(Nc2ccc3[nH]ncc3c2)n1
Result: -27.1

Query: Suppose we examine the molecule S=c1nc(CS)[nH]c2ccccc12 ; what growth value has been reported?
Result: 101

Pending molecule:
Query: Using the record for O=c1cc(N/N=C/c2ccc(F)cc2)c2cc(Cl)ccc2[nH]1 , report its growth.
Result: 78.6
